Sourced from PubChem BioAssay (Tox21)

test: Human pregnane X receptor (PXR) small molecule agonists, qHTS cell viability counter screen (AID 1346977); conditions: PXR-Luc HepG2 viability, CellTiter-Fluor, 24 h; series mostly up to 92.4 µM; note: nearly all actives have a fitted effect of over 50% in size
Records with an inconclusive call do not appear. Activity calls are given as the source filed them. Calls come from the whole dose curve; as a rule, active = well fitted cell-killing curve with a large enough effect in the repeat runs; inconclusive = weak or mixed curves, or effect the other way; inactive = flat fitted curve, though single readings scatter.
Outcomes: active, inactive

> print(dat)
                                    compound     label
 1  CC(Cc1ccc(OCC(=O)O)cc1)NCC(O)c1csc(C(F)(F)F)n1 (stereo not given)  inactive
 2                       O=[N+]([O-])C(Br)Br  inactive
 3  CC(C)NCC(O)c1ccccc1Cl (stereo not given)  inactive
 4                                    N#CCCl  inactive
 5                   Cc1cccc(Cc2cnc[nH]2)c1C  inactive
 6  COc1ccc2c3c1O[C@H]1[C@H](O)CC[C@H]4[C@@H](C2)N(C)CC[C@@]341  inactive
 7  CCC(C)c1cccc(C(C)CC)c1O (stereo not given)  inactive
 8  CC[N+]1(CC)CCC(OC(=O)C(O)(c2ccccc2)c2ccccc2)C1 (stereo not given)  inactive
 9     COc1ccc(Cc2nccc3cc(OC)c(OC)cc23)cc1OC    active
10  CC(Cc1ccccc1)N(C)Cc1ccco1 (stereo not given)  inactive
11  CCNc1nc(NC(C)C(C)C)nc(SC)n1 (stereo not given)  inactive
12               CNC(=O)/C=C(\C)OP(=O)(OC)OC  inactive
13                            ClSC(Cl)(Cl)Cl  inactive
14           Brc1ccc(Oc2ccc(Br)cc2Br)c(Br)c1  inactive
15               COC(=O)/C=C(\C)OP(=O)(OC)OC  inactive
16                             NC(=O)C(Cl)Cl  inactive
17  O=C(N[C@@H]1N=C(c2ccccc2F)c2cccc3c2N(CC3)C1=O)c1cc2ccccc2[nH]1  inactive
18  CCCCC(CC)COC(=O)c1ccccc1C(=O)OCC(CC)CCCC (stereo not given)  inactive
19   COP(=O)(OC)O/C(=C\Cl)c1cc(Cl)c(Cl)cc1Cl  inactive
20              CC(=O)[O-].CC(=O)[O-].[Co+2]  inactive
21                CNC(=O)Oc1cc(C)cc(C(C)C)c1  inactive
22                                 C1=CCC=C1  inactive
23  O=c1c2ccccc2c(=O)c2c1cc(Cl)c1[nH]c3c([nH]c12)c(Cl)cc1c(=O)c2ccccc2c(=O)c13  inactive
24                        Nc1nc(N)c(N)c(N)n1  inactive
25                        CNC(C)(C)Cc1ccccc1  inactive
26       N#Cc1sc2c(=O)c3ccccc3c(=O)c=2sc1C#N    active
27  CCn1cc[n+](C)c1 (tested in a mixture with another compound)  inactive
28  ClC1(Cl)C2(Cl)C3(Cl)C4(Cl)C(Cl)(Cl)C5(Cl)C3(Cl)C1(Cl)C5(Cl)C24Cl (stereo not given)  inactive
29                                   BrCCCBr  inactive
30                   [O-][Cl+3]([O-])([O-])O  inactive
31  CC(=O)[O][Pb]([c]1ccccc1)([c]1ccccc1)[c]1ccccc1    active
32  CC(=O)[O][Sn]([c]1ccccc1)([c]1ccccc1)[c]1ccccc1    active
33        CN/C(=N\[N+](=O)[O-])NCc1cnc(Cl)s1  inactive
34                         Oc1ccc(Cl)c(Cl)c1  inactive
35                        [Cl-].[Cl-].[Sn+2]  inactive
36               Nc1ccc(Cl)cc1C(=O)c1ccccc1F  inactive
37                                   CC(C)Br  inactive
38                 Clc1ccc(C(Cl)(Cl)Cl)cc1Cl  inactive
39          CCOP(=O)(OCC)Oc1cc(C)nc(C(C)C)n1  inactive
40  COc1nc(C)nc(NC(=O)NS(=O)(=O)c2ccccc2Cl)n1  inactive
41                            C#CC1(O)CCCCC1  inactive
42  CCOC(=O)CCN(SN(C)C(=O)Oc1cccc2c1OC(C)(C)C2)C(C)C  inactive
43  CC(=O)C(Cl)C(=O)N(C)C (stereo not given)  inactive
44                  CCC1(CC)C(=O)N=C(O)NC1=O  inactive
45  CO/N=C(/C1=NOCCO1)c1ccccc1Oc1ncnc(Oc2ccccc2Cl)c1F    active
46       O=S(=O)(NS(=O)(=O)C(F)(F)F)C(F)(F)F    active
47                               O=Cc1ccccc1  inactive
48  CN1[C@@H]2CC[C@H]1CC(O)C2 (stereo not given in full)  inactive
49                          O=C(Cl)c1ccccc1F  inactive
50                                    C=CCBr  inactive

====

test: qHTS assay for small molecule agonists of the p53 signaling pathway - cell viability (AID 651633); conditions: p53RE-bla HCT-116 viability, ATP luminescence, 16 h; series mostly up to 83.3 µM; note: nearly all actives have a fitted effect of over 30% in size
Inconclusive results are not listed. The source made the active and inactive calls. Calls follow the shape of the full dose curve.
Outcomes: True = active, False = inactive

> print(dat)
                                    molecule  label
 1  CCOP(=S)(OCC)SC(CCl)N1C(=O)c2ccccc2C1=O (configuration not stated)  False
 2  CC(C)C(Nc1ccc(C(F)(F)F)cc1Cl)C(=O)OC(C#N)c1cccc(Oc2ccccc2)c1 (configuration not stated)  False
 3  O=[N+]([O-])c1cc(C(F)(F)F)c(Cl)c([N+](=O)[O-])c1Nc1ncc(C(F)(F)F)cc1Cl   True
 4                         CCOC(=O)Cc1ccccc1  False
 5  Cc1nn(-c2cc(NS(C)(=O)=O)c(Cl)cc2Cl)c(=O)n1C(F)F  False
 6        CCOP(=S)(OCC)Oc1cc(C)nc(N(CC)CC)n1  False
 7  CN1CCc2cc3c(cc2C1O)OCO3 (configuration not stated)  False
 8                        CNC(C)(C)Cc1ccccc1  False
 9  C[N+]1(C)[C@@H]2CC[C@H]1CC(OC(=O)C(CO)c1ccccc1)C2 (some centres not stated)  False
10                  N#CC(C#N)=NNc1cccc(Cl)c1   True
11  CC[C@]1(O)CC[C@H]2[C@@H]3CCC4=CCCC[C@@H]4[C@H]3CC[C@@]21C  False
12  CC(=O)C(Cl)C(=O)N(C)C (configuration not stated)  False

====

assay: qHTS assay to identify small molecule agonists of the progesterone receptor (PR) signaling pathway - cell viability counter screen (AID 1346799); conditions: PR-UAS-bla HEK293T viability, CellTiter-Glo luminescence, 16 h; series mostly up to 92.4 µM; note: nearly all actives have a fitted effect of over 45% in size
Records with an inconclusive call do not appear. Calls of active or inactive are those of the source. Calls follow the shape of the full dose curve.
Outcomes: active, inactive

> print(dat)
                            chemical.smiles     label
1     Clc1cc(Cl)c(-c2cc(Cl)c(Cl)cc2Cl)cc1Cl  inactive
2           CC(C)N(C(=O)SC/C(Cl)=C/Cl)C(C)C  inactive
3  Oc1ccc2[nH]cc(CCCCN3CC=C(c4ccccc4)CC3)c2c1  inactive
4  C[C@]12Cc3cn[nH]c3C[C@@H]1CC[C@@H]1[C@@H]2CC[C@@]2(C)[C@H]1CC[C@]2(C)O    active
5  CC(=O)O.CC(=O)O.CC(=O)O.CC(=O)O.CC(=O)O.CC(=O)O.CC(=O)O.O.O.[Cr].[Cr].[Cr]  inactive

====

target: Acetylcholinesterase (Homo sapiens) (UniProt P22303); assay: Acetylcholinesterase (AChE) small molecule antagonists: colormetric cell-based qHTS assay (AID 1347395); settings: SH-SY5Y cells AChE activity, colorimetric (Ellman); series mostly up to 115 µM; note: nearly all actives have a fitted effect of over 30% in size
Sequence (P22303 whole entry, looked up): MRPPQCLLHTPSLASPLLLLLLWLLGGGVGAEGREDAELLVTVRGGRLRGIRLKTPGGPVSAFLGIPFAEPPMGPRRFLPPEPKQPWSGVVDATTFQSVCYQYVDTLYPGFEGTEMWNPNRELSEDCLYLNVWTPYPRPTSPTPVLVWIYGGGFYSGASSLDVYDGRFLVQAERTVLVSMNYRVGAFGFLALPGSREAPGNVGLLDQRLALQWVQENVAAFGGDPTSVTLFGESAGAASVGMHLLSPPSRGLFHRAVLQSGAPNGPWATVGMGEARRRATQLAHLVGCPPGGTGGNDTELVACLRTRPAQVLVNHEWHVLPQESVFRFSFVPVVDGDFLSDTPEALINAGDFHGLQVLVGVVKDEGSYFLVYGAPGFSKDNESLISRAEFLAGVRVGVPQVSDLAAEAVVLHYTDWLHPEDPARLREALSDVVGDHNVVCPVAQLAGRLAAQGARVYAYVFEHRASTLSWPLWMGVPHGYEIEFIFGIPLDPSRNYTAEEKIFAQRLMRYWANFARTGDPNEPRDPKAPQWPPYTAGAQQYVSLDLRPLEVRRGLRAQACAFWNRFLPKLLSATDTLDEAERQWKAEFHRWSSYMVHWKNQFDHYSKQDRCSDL
Records with an inconclusive call do not appear. Calls of active or inactive are those of the source. The call rests on the fitted dose curve.
metric.name: outcome

> print(dat)
                            chemical.smiles  test.value
1  Cc1c([N+](=O)[O-])c(C)c([N+](=O)[O-])c(C(C)(C)C)c1[N+](=O)[O-]    inactive
2  CC#C[C@]1(O)CC[C@H]2[C@@H]3C[C@H](C)C4=CC(=O)CC[C@]4(C)[C@H]3CC[C@@]21C    inactive
3  O.O.O.O=C([O-])[C@H]([O-])[C@@H]([O-])C(=O)[O-].O=C([O-])[C@H]([O-])[C@@H]([O-])C(=O)[O-].[K+].[K+].[Sb+3].[Sb+3]    inactive
4                                  CC1CCCC1    inactive
5                       C=CCOC(=O)c1ccccc1N    inactive
